All figures here come from patent US20210355194A1.

# maps each entry to its Kd
Target: ACE2 (human, UniProt Q9BYF1 18-740)
Sequence (Q9BYF1 18-740 limits assumed): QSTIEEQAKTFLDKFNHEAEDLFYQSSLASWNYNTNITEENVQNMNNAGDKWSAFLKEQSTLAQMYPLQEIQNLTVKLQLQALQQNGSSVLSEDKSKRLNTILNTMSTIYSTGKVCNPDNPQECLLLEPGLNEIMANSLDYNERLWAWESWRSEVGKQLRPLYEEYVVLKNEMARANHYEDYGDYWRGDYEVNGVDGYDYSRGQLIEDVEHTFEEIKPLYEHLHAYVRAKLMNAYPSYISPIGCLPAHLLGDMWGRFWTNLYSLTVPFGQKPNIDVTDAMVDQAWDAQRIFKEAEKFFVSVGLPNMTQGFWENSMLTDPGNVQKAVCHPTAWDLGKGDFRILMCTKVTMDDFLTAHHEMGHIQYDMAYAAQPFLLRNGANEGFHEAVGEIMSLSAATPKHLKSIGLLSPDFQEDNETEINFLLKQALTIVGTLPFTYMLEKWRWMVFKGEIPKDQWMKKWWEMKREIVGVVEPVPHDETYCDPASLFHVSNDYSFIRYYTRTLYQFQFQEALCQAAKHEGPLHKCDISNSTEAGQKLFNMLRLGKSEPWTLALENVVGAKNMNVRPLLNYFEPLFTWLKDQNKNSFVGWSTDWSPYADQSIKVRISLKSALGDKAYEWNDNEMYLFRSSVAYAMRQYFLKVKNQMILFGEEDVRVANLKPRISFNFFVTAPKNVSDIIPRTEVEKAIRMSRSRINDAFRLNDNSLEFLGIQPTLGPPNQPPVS

binder	Kd
ACE2 variant antibody 4-62 (VHH) VHH: EVQLVESGGGLVQPGGSLRLSCAASGRTFSDDTMGWFRQAPGKEREFVAAINWSGGSTDYADSVKGRFTISADNSKNTAYLQMNSLKPEDTAVYYCATDPPLFWGQGTLVTVSS	14.9 nM
ACE2 variant antibody 4-52 (VHH) VHH: EVQLVESGGGLVQPGGSLRLSCAASGRSFSNSVMGWFRQAPGKEREFVARITWNGGSTYYADSVKGRFTISADNSKNTAYLQMNSLKPEDTAVYYCATTENPNPRWGQGTLVTVSS	11.8 nM
